Test system: M. smegmatis
Settings: […]; Tables 2 and 3 print no unit; micro-dilution, 37 °C, 48 h

# constructSequence, resultUnit, censoringOperator, MIC
measured = [
    ("IRMRIRVLL [antiTB_1080]", "mg/L", "=", 128),
    ("LRKLRKRLVRLASHLRKLRKRLL [ApoE23]", "mg/L", ">", 128),
    ("WKWLKKWIK [antiTB_1026]", "mg/L", "=", 256),
    ("LRVRLASHLRKLRKRLL [COG133]", "mg/L", ">", 256),
]
